# Test: Equilibrium solubility studies in emulgents and cosolvents
# Assay type: physicochemical
# Condition parameters: PEG 200 (cosolvent), 37 ± 1 °C, highest among cosolvents, read-out: equilibrium solubility in PEG 200
Outcome measure: solubility thermodynamic at 72 h (mg/mL)
Number only, in mg/mL; omit the unit.

The value of solubility thermodynamic at 72 h measured for the compound O=c1c2cc(O)c(O)cc2oc2cc(O)c([C@@H]3O[C@H](CO)[C@@H](O)[C@H](O)[C@H]3O)c(O)c12 turned out to be 10.2

###

# Test: In vivo pharmacokinetic studies
# Condition parameters: plasma; rat, oral, Mgf equivalent to 30 mg/kg
Outcome measure: Cmax (ng/mL)
Number only, in ng/mL; omit the unit.

The value of Cmax measured for the compound O=c1c2cc(O)c(O)cc2oc2cc(O)c([C@@H]3O[C@H](CO)[C@@H](O)[C@H](O)[C@H]3O)c(O)c12 turned out to be 297

###

# Test: In vivo pharmacokinetic studies
# Condition parameters: plasma; rat, oral, Mgf equivalent to 30 mg/kg
Outcome measure: Tmax (h)
Number only, in h; omit the unit.

The value of Tmax measured for the molecule O=c1c2cc(O)c(O)cc2oc2cc(O)c([C@@H]3O[C@H](CO)[C@@H](O)[C@H](O)[C@H]3O)c(O)c12 [Mgf, mangiferin] turned out to be 3.08

###

# Test: In vivo pharmacokinetic studies
# Condition parameters: plasma; rat, oral, Mgf equivalent to 30 mg/kg
Outcome measure: MRT
# number then unit; no other words

The value of MRT measured for the compound O=c1c2cc(O)c(O)cc2oc2cc(O)c([C@@H]3O[C@H](CO)[C@@H](O)[C@H](O)[C@H]3O)c(O)c12 turned out to be 8.16 h
